# 5+ nucleoli phenotype percent effect per record follows
# Test system: MCF10A
# protocol: 5+ nucleoli phenotype percent effect (relative to siNT 0% and siKIF11 100%); higher = more cells with five or more nucleoli
# protocol.conditions: 20 nM; 72 h
Write the number in % without appending the unit.

Look over these answered cases.
INSERT INTO results (sequence_code, reported_property, measured) VALUES
  ('UUAAUUUUUUGUUUCGGUCACU [hsa-miR-4775]', '5+ nucleoli phenotype percent effect', 21.1),
  ('GCUCUGACGAGGUUGCACUACU [hsa-miR-301b-5p]', '5+ nucleoli phenotype percent effect', 15.2),
  ('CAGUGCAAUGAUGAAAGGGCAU [hsa-miR-130b-3p]', '5+ nucleoli phenotype percent effect', 59.9),
  ('AAAAGGCGGGAGAAGCCCCA [hsa-miR-4484]', '5+ nucleoli phenotype percent effect', -51.6);

Now consider the entry below.
In: # 5+ nucleoli phenotype percent effect lookup, item UGGCUGCUUCCCUUGGUCUCCAG [hsa-miR-6762-3p]
Out: -10.9
